These entries and their values trace back to ChEMBL document CHEMBL3259528.

system: Candida albicans; assay: Antimicrobial activity against Candida albicans ATCC 537Y after 48 hrs by two-fold broth microdilution method; format: functional
Binary call on MIC90 with cut-off 50 µM: strictly below means Criterion met, and equality or higher means Criterion not met.

Use these answered entries as a reference point.
> print(dat)
                                    compound              class
 1  CC(=O)N1N=C(c2ccc(Cl)cc2Cl)OC1c1ccc([N+](=O)[O-])o1 (stereo unspecified)      Criterion met
 2  CC(=O)N1N=C(c2ccc(F)cc2)OC1c1ccc([N+](=O)[O-])o1 (stereo unspecified)      Criterion met
 3  O=C(N/N=C/c1ccc([N+](=O)[O-])o1)c1ccc(C(F)(F)F)cc1      Criterion met
 4  CC(=O)N1N=C(c2ccccc2)OC1c1ccc([N+](=O)[O-])o1 (stereo unspecified)      Criterion met
 5  COc1ccc(C(=O)N/N=C/c2ccc([N+](=O)[O-])o2)cc1  Criterion not met
 6  CC(=O)N1N=C(c2ccc(C#N)cc2)OC1c1ccc([N+](=O)[O-])o1 (stereo unspecified)      Criterion met
 7  O=C(N/N=C/c1ccc([N+](=O)[O-])o1)c1ccc(Cl)cc1Cl      Criterion met
 8  CCCc1ccc(C2=NN(C(C)=O)C(c3ccc([N+](=O)[O-])o3)O2)cc1 (stereo unspecified)      Criterion met
 9  O=C(N/N=C/c1ccc([N+](=O)[O-])o1)c1ccc(F)cc1  Criterion not met
10  CCCCOc1ccc(C2=NN(C(C)=O)C(c3ccc([N+](=O)[O-])o3)O2)cc1 (stereo unspecified)      Criterion met

Request: In plain terms, does O=C(N/N=C/c1ccc([N+](=O)[O-])o1)c1ccc(Cl)cc1 come in under 50 µM for MIC90?
Result: Criterion not met

---

system: Candida albicans; assay: Antimicrobial activity against Candida albicans ATCC 537Y after 48 hrs by two-fold broth microdilution method; type: functional
For each record, write down the corresponding MIC90.

> print(dat)
                                   compound  system.under.test  measurement
1  CCc1ccc(C(=O)N/N=C/c2ccc([N+](=O)[O-])o2)cc1   Candida albicans        54 µM
2  O=C(N/N=C/c1ccc([N+](=O)[O-])o1)c1ccccc1   Candida albicans      60.3 µM
3  CCc1ccc(C2=NN(C(C)=O)C(c3ccc([N+](=O)[O-])o3)O2)cc1 (stereo not given)   Candida albicans      48.2 µM

I'm hoping you can list MIC90 for every compound here, please.
1. CC(=O)N1N=C(c2ccc([N+](=O)[O-])cc2)OC1c1ccc([N+](=O)[O-])o1 (stereo not given)
2. CCCc1ccc(C(=O)N/N=C/c2ccc([N+](=O)[O-])o2)cc1
3. O=C(N/N=C/c1ccc([N+](=O)[O-])o1)c1ccc(Cl)c(Cl)c1
4. CC(=O)N1N=C(c2ccc(C)cc2)OC1c1ccc([N+](=O)[O-])o1 (stereo not given)

Result:
["44.6 µM", "42.1 µM", "32.2 µM", "49.9 µM"]

---

test system: Enterococcus faecalis; experiment: Antimicrobial activity against Enterococcus faecalis ATCC 29212 after 24 to 48 hrs by two-fold broth microdilution method; assay type: functional
REPORTED PROPERTY: MIC90 (µM)
Answers are plain numbers, in µM.

// known answers, use as guide
> print(dat)
                                   compound      system.under.test  readout.units  measurement
1  O=C(N/N=C/c1ccc([N+](=O)[O-])o1)c1ccc(Cl)cc1  Enterococcus faecalis             µM         40.7
2  CC(=O)N1N=C(c2ccccc2)OC1c1ccc([N+](=O)[O-])o1 (stereo not drawn)  Enterococcus faecalis             µM         52.9
3  CCCc1ccc(C(=O)N/N=C/c2ccc([N+](=O)[O-])o2)cc1  Enterococcus faecalis             µM         73.2
4  N#Cc1ccc(C(=O)N/N=C/c2ccc([N+](=O)[O-])o2)cc1  Enterococcus faecalis             µM         40.4
5  CCCOc1ccc(C(=O)N/N=C/c2ccc([N+](=O)[O-])o2)cc1  Enterococcus faecalis             µM         73.5
6  O=C(N/N=C/c1ccc([N+](=O)[O-])o1)c1ccc(Cl)cc1Cl  Enterococcus faecalis             µM         58.7

I'm hoping you can list MIC90 for every compound here, please.
1. COc1ccc(C(=O)N/N=C/c2ccc([N+](=O)[O-])o2)cc1
2. CC(C)(C)c1ccc(C(=O)N/N=C/c2ccc([N+](=O)[O-])o2)cc1
3. O=C(N/N=C/c1ccc([N+](=O)[O-])o1)c1ccc(F)cc1

Result:
1: 14.6; 2: 59.8; 3: 71.2

I'm hoping you can list MIC90 for every compound here, please.
1. CCCCOc1ccc(C(=O)N/N=C/c2ccc([N+](=O)[O-])o2)cc1
2. O=C(N/N=C/c1ccc([N+](=O)[O-])o1)c1ccc(O)cc1 [NIFUROXAZIDE]

Result:
1. 24.1
2. 10.6

I'm hoping you can list MIC90 for every compound here, please.
1. CCCCc1ccc(C(=O)N/N=C/c2ccc([N+](=O)[O-])o2)cc1
2. O=C(N/N=C/c1ccc([N+](=O)[O-])o1)c1ccc(C(F)(F)F)cc1
3. O=C(N/N=C/c1ccc([N+](=O)[O-])o1)c1ccc(Cl)c(Cl)c1
4. CC(=O)N1N=C(c2ccc(C#N)cc2)OC1c1ccc([N+](=O)[O-])o1 (stereo not drawn)
5. Cc1ccc(C(=O)N/N=C/c2ccc([N+](=O)[O-])o2)cc1

Result:
55.9
60.9
59.7
75.2
14.2

---

system: Enterococcus faecalis; experiment: Antimicrobial activity against Enterococcus faecalis ATCC 29212 after 24 to 48 hrs by two-fold broth microdilution method; format: functional
REPORTED PROPERTY: MIC (µM)
Numbers only, in µM.

> print(dat)
                                   compound  reported.property  measurement
1  O=C(N/N=C/c1ccc([N+](=O)[O-])o1)c1ccc(Cl)cc1                MIC           32
2  O=C(N/N=C/c1ccc([N+](=O)[O-])o1)c1ccc(O)cc1 [NIFUROXAZIDE]                MIC            8
3  O=C(N[C@H](CO)[C@H](O)c1ccc([N+](=O)[O-])cc1)C(Cl)Cl [CHLORAMPHENICOL]                MIC            8
4  COc1ccc(C(=O)N/N=C/c2ccc([N+](=O)[O-])o2)cc1                MIC            8

Request: Please look up its MIC: CC(=O)N1N=C(c2ccc(F)cc2)OC1c1ccc([N+](=O)[O-])o1 (stereo unspecified)
Result: 64

---

For each record, write down the corresponding MIC.
tested on: Enterococcus faecalis; assay: Antimicrobial activity against Enterococcus faecalis ATCC 29212 after 24 to 48 hrs by two-fold broth microdilution method; format: functional

// known answers, use as guide
> print(dat)
                                   compound  reported.property  measurement
1  CCCOc1ccc(C(=O)N/N=C/c2ccc([N+](=O)[O-])o2)cc1                MIC        64 µM
2  CC(=O)N1N=C(c2ccccc2)OC1c1ccc([N+](=O)[O-])o1 (stereo unspecified)                MIC        32 µM
3  Nc1ccc(C(=O)N/N=C/c2ccc([N+](=O)[O-])o2)cc1                MIC         4 µM
4  CCCc1ccc(C(=O)N/N=C/c2ccc([N+](=O)[O-])o2)cc1                MIC        64 µM
5  CC(=O)N1N=C(c2ccc(Cl)cc2Cl)OC1c1ccc([N+](=O)[O-])o1 (stereo unspecified)                MIC        32 µM

I'm hoping you can list MIC for every compound here, please.
1. CCCCOc1ccc(C(=O)N/N=C/c2ccc([N+](=O)[O-])o2)cc1
2. CCc1ccc(C(=O)N/N=C/c2ccc([N+](=O)[O-])o2)cc1
3. N#Cc1ccc(C(=O)N/N=C/c2ccc([N+](=O)[O-])o2)cc1
4. CC(C)(C)c1ccc(C(=O)N/N=C/c2ccc([N+](=O)[O-])o2)cc1
5. CCOc1ccc(C(=O)N/N=C/c2ccc([N+](=O)[O-])o2)cc1
6. CC1(C)S[C@@H]2[C@H](NC(=O)[C@H](N)c3ccccc3)C(=O)N2[C@H]1C(=O)O
7. O=C1CN(/N=C/c2ccc([N+](=O)[O-])o2)C(=O)N1

Result:
1: 16 µM; 2: 64 µM; 3: 32 µM; 4: 32 µM; 5: 32 µM; 6: < 20 µM; 7: 16 µM

I'm hoping you can list MIC for every compound here, please.
1. O=C(N/N=C/c1ccc([N+](=O)[O-])o1)c1ccccc1
2. CC(=O)N1N=C(c2ccc([N+](=O)[O-])cc2)OC1c1ccc([N+](=O)[O-])o1 (stereo unspecified)
3. Cc1ccc(C(=O)N/N=C/c2ccc([N+](=O)[O-])o2)cc1
4. O=C(N/N=C/c1ccc([N+](=O)[O-])o1)c1ccc(Cl)cc1Cl
5. O=C(N/N=C/c1ccc([N+](=O)[O-])o1)c1ccc(C(F)(F)F)cc1
6. O=C(N/N=C/c1ccc([N+](=O)[O-])o1)c1ccc(F)cc1
7. CC(=O)N1N=C(c2ccc(C#N)cc2)OC1c1ccc([N+](=O)[O-])o1 (stereo unspecified)

Result:
1. 32 µM
2. 32 µM
3. 8 µM
4. 32 µM
5. 32 µM
6. 64 µM
7. 64 µM

I'm hoping you can list MIC for every compound here, please.
1. O=C(N/N=C/c1ccc([N+](=O)[O-])o1)c1ccc(Cl)c(Cl)c1
2. CCCCc1ccc(C(=O)N/N=C/c2ccc([N+](=O)[O-])o2)cc1

Result:
["32 µM", "32 µM"]
